# target or system: Beta-ketoacyl-ACP-synthase III (Plasmodium falciparum)
# assay procedure: Inhibition of Plasmodium falciparum D6 KASIII at 100 uM
Calls of active or inactive are those of the source. No cut-off for these calls is given here.
attribute measured: Activity

Answered examples (5):
O=C1N(Cc2ccccc2)CCS1(=O)=O inactive
S=C1SCCN1Cc1ccccc1 inactive
CN1CCSC1=S inactive
S=C1SCCN1CCc1ccccc1 inactive
CN1CCS(=O)(=O)C1=O inactive

In: Return reported Activity for target or system Beta-ketoacyl-ACP-synthase III (Plasmodium falciparum), item `O=C1SCCN1Cc1ccc(Oc2ccccc2)cc1` .
Out: inactive

In: Return reported Activity for target or system Beta-ketoacyl-ACP-synthase III (Plasmodium falciparum), item `O=C1SCCN1Cc1cccnc1` .
Out: inactive

In: Return reported Activity for target or system Beta-ketoacyl-ACP-synthase III (Plasmodium falciparum), item `CCCN1CCS(=O)(=O)C1=O` .
Out: inactive

In: Return reported Activity for target or system Beta-ketoacyl-ACP-synthase III (Plasmodium falciparum), item `O=C1N(Cc2ccc(Oc3ccccc3)cc2)CCS1(=O)=O` .
Out: inactive

Value source: ChEMBL document CHEMBL1146351
